Test: qHTS Assay for Lipid Storage Modulators in Drosophila S3 Cells
Conditions: BODIPY lipid droplet fluorescence, 18-24 h, cells fed with added oleic acid; series mostly up to 46.1 µM
Among all 320,000 compounds or so, about 2,100 (0.66%) were called active. Another 53% or so got no clear call; they are omitted. The call rests on the fitted dose curve; in most records, active means well fitted inhibition curve with a large enough effect in the signal ratio, with a control signal flat (not every such curve was filed as active); inconclusive means small, poorly fitted or top-dose-only effect, or effect the other way, or a change in a side signal; inactive means flat fitted curve, though single readings scatter; the % refers to the signal ratio. The sample holds actives, similar compounds and a random draw of the others, so the mix is not that of the screen.
Classes used: 1 (yes) (active), 0 (no) (inactive)

> print(dat)
                           structure.smiles  class.assignment
1  O=C(NCc1nc2ccccc2[nH]1)c1c(F)c(F)c(F)c(F)c1F            0 (no)
2  Cc1cc(=O)oc2c3c(cc(OCC(=O)NCC(=O)O)c12)OC(C)(C)CC3            0 (no)
3                   Cc1nc2ccccc2n1Cc1ccccc1            0 (no)
4  CCc1cc(=O)oc2c3c(cc(OCC(=O)NCCC(=O)O)c12)OC(C)(C)CC3            0 (no)
5  COc1cccc(CNC(=O)COc2cc3c(c4oc(=O)cc(C)c24)CCC(C)(C)O3)c1           1 (yes)

---

Test: qHTS Assay for Lipid Storage Modulators in Drosophila S3 Cells
Conditions: BODIPY lipid droplet fluorescence, 18-24 h, cells fed with added oleic acid; series mostly up to 46.1 µM
In all, about 320,000 compounds went through this assay and about 2,100 (0.66%) were called active. Not shown: some 53% with an inconclusive outcome. Calls come from the whole dose curve; as a rule, active = well fitted inhibition curve with a large enough effect in the signal ratio, with a control signal flat (not every such curve was filed as active); inconclusive = small, poorly fitted or top-dose-only effect, or effect the other way, or a change in a side signal; inactive = flat fitted curve, though single readings scatter; the % refers to the signal ratio. The sample holds actives, similar compounds and a random draw of the others, so the mix is not that of the screen.
Classes used: y = active, n = inactive

> print(dat)
                                    molecule  class.assignment
 1      COc1ccc(C2=NCCn3nc4cc(OC)ccc4c32)cc1                 n
 2     Cc1ccc(-c2nnc(SCC(=O)Nc3nccs3)n2N)cc1                 n
 3  COc1ccc(/C=N/Nc2cc(C)nc(N3CCOCC3)n2)c(OC)c1                 n
 4          CC(C)N(Cc1ccccc1)C(=O)COc1ccccc1                 n
 5        NC(=O)C1CCN(c2ccnc3cc(Cl)ccc23)CC1                 n
 6  COc1ccc(C(c2c(NC(=O)c3ccco3)sc(C)c2C)N2CCOCC2)cc1OC (configuration not stated)                 n
 7  Cc1ccc(C23CC4CC(CC(C(=O)OCC(=O)N(C)C)(C4)C2)C3)cc1                 n
 8  O=C(c1ccc(-c2ccccc2)c(F)c1)C1CCCN(CCCn2cccn2)C1 (configuration not stated)                 n
 9  Cc1ccc(N(CC(=O)NC2CCCCC2C)S(=O)(=O)c2c(C)noc2C)cc1 (configuration not stated)                 n
10  O=[N+]([O-])c1ccc2c3n([n+]([O-])c2c1)CCN=C3c1ccc(Cl)cc1                 n
11     O=C(Cn1c(NCCCO)nc2ccccc21)c1ccc(F)cc1                 n
12  COc1ccc(OC)c(N(CC(=O)NCCSCc2ccco2)S(=O)(=O)c2ccc(OC)c(OC)c2)c1                 n
13        CSc1ccc(S(=O)(=O)Nc2c(C)cccc2C)cc1                 n
14  Cc1ccc([N+](=O)[O-])cc1NC(=O)CCCOc1ccccc1                 n
15  O=C(CNc1cccc(S(=O)(=O)N2CCCC2)c1)Nc1cccc(Br)c1                 n
16  CCN(CC)CCCN(C(=O)Cn1nnc(-c2ccc(OC)c(OC)c2)n1)C(C(=O)NC(C)(C)C)c1ccc(F)cc1 (configuration not stated)                 n
17  Cc1ccc(C2=NCCn3c2c2ccc([N+](=O)[O-])cc2[n+]3[O-])cc1                 y
18  Cc1sc(NC(=O)c2ccco2)c(C(c2cccnc2)N2CCCC2)c1C (configuration not stated)                 n
19    CCc1ccc2oc(C(=O)N3CCN(C)CC3)cc(=O)c2c1                 n
20  COc1ccc(OCCCC(=O)Nc2cc([N+](=O)[O-])ccc2C)cc1                 y
21     O=C1OCc2ccc(NC(=O)c3ccccc3C(=O)O)cc21                 n
22  COC(=O)c1ccc(COC(=O)C2CC(O)CN2S(=O)(=O)c2ccc([N+](=O)[O-])cc2)cc1 (configuration not stated)                 n

---

Experiment: qHTS Assay for Lipid Storage Modulators in Drosophila S3 Cells;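 on cell number change: cells counted by Cell Tracker Red CMTPX staining in the red channel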
Settings: BODIPY lipid droplet fluorescence, 18-24 h, cells fed with added oleic acid; measured here: cell count max response
Among all 320,000 compounds or so, about 2,100 (0.66%) were called active. About 53% were inconclusive and are not listed. This excerpt belongs to a sample that is enriched for actives.
measurement.type: cell number change (%)

> print(dat)
                                    molecule  recorded.measurement
 1   CC(=O)c1ccc(S(=O)(=O)N2CCCc3ccccc32)cc1                  13.2
 2  CCc1cccc(NC(=O)c2sc3nc4n(c(=O)c3c2C)CCC4)c1                 -22.1
 3  O=C(CSc1nc2c(c(=O)n1-c1ccc(F)cc1)SCC2)N1CCCC1                 -5.69
 4      Cc1cccc(OCC(=O)O/N=C(\N)c2ccccn2)c1C                 -6.52
 5           CC[N+]1=C(C)C(C)(C)c2cc(C)ccc21                 -16.1
 6  COc1ccccc1N1CCN(C(=O)c2sc3nc4n(c(=O)c3c2C)CCC4)CC1                 -21.5
 7   Cc1cc(SCC(=O)Nc2ncc(Cl)cc2Cl)nc2ccccc12                  19.1
 8  COc1cccc(NC(=O)c2sc3nc4n(c(=O)c3c2C)CCC4)c1                 -27.4
 9       COCCNc1nnc(Cc2ccc(Cl)cc2)c(=O)[nH]1                -0.278
10         CCOC(=O)c1sc2nc3n(c(=O)c2c1C)CCC3                  7.44
11  CC(C)C(C(=O)NCC1CCCO1)N(C(=O)CNS(=O)(=O)c1ccccc1)c1ccc(F)cc1 (stereo unspecified)                  10.5

---

Experiment: qHTS Assay for Lipid Storage Modulators in Drosophila S3 Cells;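 on cell number change: cells counted by Cell Tracker Red CMTPX staining in the red channel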
Conditions: BODIPY lipid droplet fluorescence, 18-24 h, cells fed with added oleic acid; measured here: cell count max response
Out of some 320,000 compounds screened, about 2,100 (0.66%) were called active. Roughly 53% stayed inconclusive and do not appear here. What follows is part of a selection rich in actives, with near analogues and random picks from the rest.
measurement.type: cell number change (%)

> print(dat)
                                    compound  recorded.measurement
 1  CC(C)CC(NC(=O)COc1ccccc1)C(=O)O (configuration not stated)                  23.7
 2  CCOC(=O)C1CCN(C(=O)CC(NS(=O)(=O)c2ccc(OC)cc2)C(C)C)CC1 (configuration not stated)                  5.69
 3   CC(C)(C)c1ccc(NC(=O)Nc2ccc3ccccc3n2)cc1                  14.5
 4           O=C(O)C1CCN(C(=O)c2ccccc2Cl)CC1                   6.2
 5   O=C1C=Cc2ccccc2/C1=C/c1[nH]c(=O)[nH]c1O                  1.79
 6         O=C(CSc1ccc(-c2ccccn2)nn1)N1CCCC1                  4.79
 7                    CN(C)CCCNC(=O)C1CCNCC1                 -14.6
 8                   O=C(c1ccccc1Cl)N1CCSCC1                  2.74
 9  COc1ccc(S(=O)(=O)N(CC(=O)NCCC(C)C)c2ccccc2)cc1OC                 -21.6
10  O=[N+]([O-])c1ccccc1/C=N/N1CCN(Cc2ccccc2)CC1                 -5.28
11  CC(C)C(NC(=O)COc1ccccc1)C(=O)O (configuration not stated)                 -18.5
12  CCC(C)NC(=O)C(=O)NCc1ccccn1 (configuration not stated)                   4.8
